System under test: Neuropeptide Y receptor type 1 (Homo sapiens, UniProt P25929); note: assay procedure not described here
Sequence (P25929 whole entry): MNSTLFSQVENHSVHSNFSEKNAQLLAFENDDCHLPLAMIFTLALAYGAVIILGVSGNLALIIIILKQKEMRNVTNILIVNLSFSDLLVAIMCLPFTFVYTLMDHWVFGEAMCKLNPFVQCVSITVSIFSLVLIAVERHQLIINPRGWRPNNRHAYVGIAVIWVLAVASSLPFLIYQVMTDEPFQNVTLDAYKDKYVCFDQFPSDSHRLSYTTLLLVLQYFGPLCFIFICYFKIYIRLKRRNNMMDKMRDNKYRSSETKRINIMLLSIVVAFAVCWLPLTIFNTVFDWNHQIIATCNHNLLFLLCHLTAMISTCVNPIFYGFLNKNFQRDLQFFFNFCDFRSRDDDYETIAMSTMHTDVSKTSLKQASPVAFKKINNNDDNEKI
AC50 listing for selected compounds.
Measured metric: AC50

compound=COc1ccc(-c2ccc3cc(C(=O)O)ccc3c2)cc1C12CC3CC(CC(C3)C1)C2 system_under_test="Neuropeptide Y receptor type 1 (Homo sapiens, UniProt P25929)" result="> 30 µM"
compound=CC(=O)O[C@H]1C[C@@H]2CC[C@@H]3[C@H](CC[C@@]4(C)[C@H]3C[C@H]([N+]3(C)CCCCC3)[C@@H]4OC(C)=O)[C@@]2(C)C[C@@H]1N1CCCCC1 system_under_test="Neuropeptide Y receptor type 1 (Homo sapiens, UniProt P25929)" result="> 30 µM"
compound="NC(=O)OCC(COC(N)=O)c1ccccc1 [FELBAMATE]" system_under_test="Neuropeptide Y receptor type 1 (Homo sapiens, UniProt P25929)" result="> 10 µM"
compound="CCCC(=O)O[C@]1(C(=O)CO)CC[C@H]2[C@@H]3CCC4=CC(=O)CC[C@]4(C)[C@H]3[C@@H](O)C[C@@]21C [HYDROCORTISONE BUTYRATE]" system_under_test="Neuropeptide Y receptor type 1 (Homo sapiens, UniProt P25929)" result="> 10 µM"
compound=Nc1nc(NC2CC2)c2ncn([C@H]3C=C[C@@H](CO)C3)c2n1 system_under_test="Neuropeptide Y receptor type 1 (Homo sapiens, UniProt P25929)" result="> 30 µM"
compound=C[C@](N)(Cc1ccc(O)c(O)c1)C(=O)O system_under_test="Neuropeptide Y receptor type 1 (Homo sapiens, UniProt P25929)" result="> 10 µM"
compound="NS(=O)(=O)Cc1noc2ccccc12 [ZONISAMIDE]" system_under_test="Neuropeptide Y receptor type 1 (Homo sapiens, UniProt P25929)" result="> 10 µM"
compound=CN1C(C(=O)Nc2ccccn2)=C(O)c2sc(Cl)cc2S1(=O)=O system_under_test="Neuropeptide Y receptor type 1 (Homo sapiens, UniProt P25929)" result="> 30 µM"
compound="C[C@]12CCC(=O)C=C1CC[C@@H]1[C@@H]2[C@@H](O)C[C@@]2(C)[C@H]1CC[C@]2(O)C(=O)CO [HYDROCORTISONE]" system_under_test="Neuropeptide Y receptor type 1 (Homo sapiens, UniProt P25929)" result="> 30 µM"
compound=CCN1CCN(C(=O)N[C@@H](C(=O)N[C@@H]2C(=O)N3C(C(=O)O)=C(CSc4nnnn4C)CS[C@H]23)c2ccc(O)cc2)C(=O)C1=O system_under_test="Neuropeptide Y receptor type 1 (Homo sapiens, UniProt P25929)" result="> 30 µM"
compound=NCC(=O)CCC(=O)O system_under_test="Neuropeptide Y receptor type 1 (Homo sapiens, UniProt P25929)" result="> 30 µM"
compound="Cc1ccc(S(=O)(=O)NC(=O)NN2CC3CCCC3C2)cc1 (stereo not given) [GLICLAZIDE]" system_under_test="Neuropeptide Y receptor type 1 (Homo sapiens, UniProt P25929)" result="> 10 µM"
compound="CN(C)CC/C=C1\\c2ccccc2CSc2ccccc21 [DOTHIEPIN]" system_under_test="Neuropeptide Y receptor type 1 (Homo sapiens, UniProt P25929)" result="> 30 µM"
compound=Nc1ccn([C@H]2CC[C@@H](CO)O2)c(=O)n1 system_under_test="Neuropeptide Y receptor type 1 (Homo sapiens, UniProt P25929)" result="> 10 µM"
compound="COc1cc(NC(C)CCCN)c2ncccc2c1 (stereo not given)" system_under_test="Neuropeptide Y receptor type 1 (Homo sapiens, UniProt P25929)" result="> 30 µM"
compound="Cc1cccc(C(C)c2cnc[nH]2)c1C (stereo not given)" system_under_test="Neuropeptide Y receptor type 1 (Homo sapiens, UniProt P25929)" result="> 30 µM"
compound=C[C@H](N)[C@H](O)c1cccc(O)c1 system_under_test="Neuropeptide Y receptor type 1 (Homo sapiens, UniProt P25929)" result="> 10 µM"
compound="CNC(C)CCC=C(C)C (stereo not given)" system_under_test="Neuropeptide Y receptor type 1 (Homo sapiens, UniProt P25929)" result="> 30 µM"
compound="CCCC(C)C1(CC)C(=O)NC(=O)NC1=O (stereo not given)" system_under_test="Neuropeptide Y receptor type 1 (Homo sapiens, UniProt P25929)" result="> 10 µM"
compound=O=C(O)C[C@H](O)C[C@H](O)/C=C/c1c(C2CC2)nc2ccccc2c1-c1ccc(F)cc1 system_under_test="Neuropeptide Y receptor type 1 (Homo sapiens, UniProt P25929)" result="> 10 µM"
compound=CN(C)CCC=C1c2ccccc2C=Cc2ccccc21 system_under_test="Neuropeptide Y receptor type 1 (Homo sapiens, UniProt P25929)" result="> 30 µM"
compound=C[C@]12CC[C@H]3[C@@H](CCC4=CC(=O)CC[C@@]43C)[C@@H]1CC[C@@H]2O system_under_test="Neuropeptide Y receptor type 1 (Homo sapiens, UniProt P25929)" result="> 10 µM"
compound=Clc1ccc(CCCOCCCN2CCCCC2)cc1 system_under_test="Neuropeptide Y receptor type 1 (Homo sapiens, UniProt P25929)" result="> 30 µM"
compound="CCCC1O[C@@H]2C[C@H]3[C@@H]4CCC5=CC(=O)C=C[C@]5(C)[C@H]4[C@@H](O)C[C@]3(C)[C@]2(C(=O)CO)O1 (stereo not given in full) [BUDESONIDE]" system_under_test="Neuropeptide Y receptor type 1 (Homo sapiens, UniProt P25929)" result="> 10 µM"
compound=CCCSc1ccc2nc(NC(=O)OC)[nH]c2c1 system_under_test="Neuropeptide Y receptor type 1 (Homo sapiens, UniProt P25929)" result="> 10 µM"
compound="CC(Oc1c(Cl)cccc1Cl)C1=NCCN1 (stereo not given)" system_under_test="Neuropeptide Y receptor type 1 (Homo sapiens, UniProt P25929)" result="> 30 µM"
compound="CCCCCCOc1ccccc1C(N)=O [EXALAMIDE]" system_under_test="Neuropeptide Y receptor type 1 (Homo sapiens, UniProt P25929)" result="> 30 µM"
compound="CCCN(CCC)C(=O)C(CCC(=O)O)NC(=O)c1ccccc1 (stereo not given) [PROGLUMIDE]" system_under_test="Neuropeptide Y receptor type 1 (Homo sapiens, UniProt P25929)" result="> 30 µM"
compound=N#Cc1ccc([C@H]2CCc3cncn32)c(F)c1 system_under_test="Neuropeptide Y receptor type 1 (Homo sapiens, UniProt P25929)" result="> 10 µM"
compound=CCCCCNC(=N)N/N=C/c1c[nH]c2ccc(OC)cc12 system_under_test="Neuropeptide Y receptor type 1 (Homo sapiens, UniProt P25929)" result="11.4 µM"
compound=CCCCc1ncc(/C=C(\Cc2cccs2)C(=O)O)n1Cc1ccc(C(=O)O)cc1 system_under_test="Neuropeptide Y receptor type 1 (Homo sapiens, UniProt P25929)" result="> 10 µM"
compound=CO[C@H]1C[C@@H]2CC[C@@H](C)[C@@](O)(O2)C(=O)C(=O)N2CCCC[C@H]2C(=O)O[C@H]([C@H](C)C[C@@H]2CC[C@@H](O)[C@H](OC)C2)CC(=O)[C@H](C)/C=C(\C)[C@@H](O)[C@@H](OC)C(=O)[C@H](C)C[C@H](C)/C=C/C=C/C=C/1C system_under_test="Neuropeptide Y receptor type 1 (Homo sapiens, UniProt P25929)" result="> 30 µM"
compound=C#C[C@]1(O)CC[C@H]2[C@@H]3[C@H](C)CC4=C(CCC(=O)C4)[C@H]3CC[C@@]21C system_under_test="Neuropeptide Y receptor type 1 (Homo sapiens, UniProt P25929)" result="> 30 µM"
compound="COc1cccc(C2(O)CCCCC2CN(C)C)c1 (stereo not given)" system_under_test="Neuropeptide Y receptor type 1 (Homo sapiens, UniProt P25929)" result="> 30 µM"
compound="Cn1nnc2c(C(N)=O)ncn2c1=O [TEMOZOLOMIDE]" system_under_test="Neuropeptide Y receptor type 1 (Homo sapiens, UniProt P25929)" result="> 30 µM"
